# koff annotations
system_tested: T1, recombinant human IFN-γ protein (human, UniProt P01579 24-166, limits assumed)
T1 construct: Bought protein; also called interferon gamma; R&D systems 285-IF-100
T1 sequence: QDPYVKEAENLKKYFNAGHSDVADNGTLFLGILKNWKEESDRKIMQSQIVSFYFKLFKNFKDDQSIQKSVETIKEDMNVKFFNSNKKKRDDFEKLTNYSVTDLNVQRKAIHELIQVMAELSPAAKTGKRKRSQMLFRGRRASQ
method_notes: BLI (Octet RED96), mAb captured on AHC biosensor, recombinant human IFN-γ in solution, 1:1 model
Kindly answer with a numeric value in s⁻¹, unit omitted.

Consider the binder antibody 2F2 (antibody, human IgG1, V domains shown, Human IgG1 lambda) VH: EVQLVESGGGLVKPGESLRLACVASGFNFSDYYMTWIRQAPGKGLEWVSYISNSGSHTYYADAVKGRFTVSRDNAKNSLYLQMTSLRGEDTAIYFCARDPSIMRGTYYMDVWGKGTTVTVSS VL: QSVLTQPPSASGTPGQRVTISCSGSSSNIGTNPVSWYQQFPGMAPKLLIYFNNQRPSGVPERFSGSKSGTPASLAIGGLQSEDEANYYCASWDDTLNGLVFGGGTKLTVL and give its measured koff.
0.000109

Consider the binder antibody 2B6 (antibody, human IgG1, V domains shown, Human IgG1 lambda) VH: EVQLVESGGGLVKPGGSLRLSCAASGFPFSRYSMHWVRQAPGKGLEWVSSMTSRTNHKYYADSLKGRFLISRDNDRDSLYLEMNSLGVEDTAIYFCARGYDTSGSDSGVDFQYWGQGTLVTVSS VL: NFMLTQPHSVSESPGKTITISCTRGRGYIASYYVQWYQQRPGGVPKIVVFEDTQRPSGVPDRISGSIDTSTNSASLTISGLQTEDEADYYCQSYDDANHVIFGGGTKLTVL and give its measured koff.
0.000108

Consider the binder antibody 1E8 (antibody, human IgG1, V domains shown, Human IgG1 lambda) VH: EVQLLESGGGLVQPGGPLRLSCAASGFTFSIYSMNWVRQAPGKGLEWVSSISGSGDNTYYADSVKGRFTITRDSSKNTLYLQMNTLRAEDTAVYFCAKSGRNIISPGFDSWGQGTLVTVSS VL: QPVLTQPPSASASLGASVTLTCTLNSDYGDYKVDWYQQRPGKGPRFVMRVGTGGIVGSKGDGIPDRFSVLGSGLNRFLTIKNIQEEDESDYYCGADHGSANNFIWVFGGGTKLTVL and give its measured koff.
0.000121

Consider the binder antibody 2A6 (antibody, human IgG1, V domains shown, partial N-linked glycosylation at Asn-76 of the VH, Human antibody from a single B cell, cloned into human IgG1 lambda expression vectors and made in FreeStyle 293-F cells) VH: EVQLVESGGGLVKPGDSLTVSCVASGFTFSNYFIHWVRQAPGKGLEWVATISGRTKYMFYSDSLRGRFTVSRDNANNSVYLHMSSLRGEDTALYYCVRGYDHSDSNSAADLLHWGRGTLVTVSS VL: NFMLTQPLSVSGYPGKTIVISCVRSSGSVASHYVQWFQQRPGSAPAMVIYEDSHRPSGIPDRFSGSVDASSNSASLTISGLKTEDEADYFCQSYYGNNQVLFGGGTKLTVL and give its measured koff.
3.97e-05
